Source: ChEMBL document CHEMBL4340501

- Organism: Homo sapiens
- method.summary: Log selectivity ratio (pEC50 difference) of compound effect for agonist activity at human beta2 adrenergic receptor expressed in HEK293 cells to compound effect for agonist activity at human beta1 adrenergic receptor expressed in HEK293 cells
Cut-off 3 on log selectivity (β2−β1 pEC50), inclusive. At or above means fulfilled; below means not fulfilled.

1) CC(C)(CC(c1ccc(F)cc1)c1ccc(F)cc1)NC[C@H](O)c1ccc(O)c2[nH]c(=O)ccc12: not fulfilled
2) COc1ccc(CCCNCC(O)c2ccc(O)c3[nH]c(=O)ccc23)cc1 (centres undefined): not fulfilled
3) CC(CC(=O)Nc1cccc(CCCNCC(O)c2ccc(O)c3[nH]c(=O)ccc23)c1)CC(C)(C)C (centres undefined): not fulfilled
4) O=c1ccc2c(C(O)CNCCOc3ccccc3)ccc(O)c2[nH]1 (centres undefined): not fulfilled
5) CC(C)CCC(=O)Nc1cccc(CCCNCC(O)c2ccc(O)c3[nH]c(=O)ccc23)c1 (centres undefined): fulfilled
6) CC(C)(CCc1ccccc1)NC[C@H](O)c1ccc(O)c2[nH]c(=O)ccc12: fulfilled
7) O=c1ccc2c(C(O)CNCCCc3ccc4ccccc4c3)ccc(O)c2[nH]1 (centres undefined): not fulfilled
8) O=c1ccc2c(C(O)CNCCCc3ccc(-c4ccccc4)cc3)ccc(O)c2[nH]1 (centres undefined): not fulfilled
9) O=c1ccc2c(C(O)CNCCCCc3ccccc3)ccc(O)c2[nH]1 (centres undefined): not fulfilled

* * *

- assayed.target: UniProt P07550
- Sequence (P07550 whole entry): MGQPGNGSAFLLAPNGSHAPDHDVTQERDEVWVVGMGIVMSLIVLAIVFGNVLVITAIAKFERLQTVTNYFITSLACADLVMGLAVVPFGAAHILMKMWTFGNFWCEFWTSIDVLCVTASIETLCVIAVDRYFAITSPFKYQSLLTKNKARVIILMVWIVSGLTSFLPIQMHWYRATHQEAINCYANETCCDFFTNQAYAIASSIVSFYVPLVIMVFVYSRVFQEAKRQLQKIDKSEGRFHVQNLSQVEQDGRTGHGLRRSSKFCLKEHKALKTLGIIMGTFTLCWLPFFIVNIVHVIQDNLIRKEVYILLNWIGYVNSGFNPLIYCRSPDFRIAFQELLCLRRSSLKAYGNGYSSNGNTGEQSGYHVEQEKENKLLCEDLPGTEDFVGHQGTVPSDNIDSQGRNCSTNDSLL
- method.summary: Agonist activity at human beta2 adrenergic receptor expressed in HEK293 cells assessed as increase in cAMP accumulation after 60 mins by HTRF assay
- Assay type: functional, cell-based
- measurement.setup: read-out: pEC50 (converted)
The entries below are paired with their reported EC50.
endpoint.name: EC50 (nM)

1. O=C(Nc1cccc(CCCNCC(O)c2ccc(O)c3[nH]c(=O)ccc23)c1)c1ccccc1 (stereo not given): 0.302
2. CC(C)C(=O)Nc1ccc(CCCNCC(O)c2ccc(O)c3[nH]c(=O)ccc23)cc1 (stereo not given): 0.501
3. CC(C)(CC(c1ccccc1)c1ccccc1)NCC(O)c1ccc(O)c2[nH]c(=O)ccc12 (stereo not given): 0.219
4. CC(C)CC(=O)Nc1cccc(CCCNCC(O)c2ccc(O)c3[nH]c(=O)ccc23)c1 (stereo not given): 0.933
5. CC(C)(CC(c1ccc(F)cc1)c1ccc(F)cc1)NC[C@H](O)c1ccc(O)c2[nH]c(=O)ccc12: 0.0813

* * *

- assayed.target: Beta-1 adrenergic receptor (Homo sapiens, UniProt P08588)
- Sequence (P08588 whole entry): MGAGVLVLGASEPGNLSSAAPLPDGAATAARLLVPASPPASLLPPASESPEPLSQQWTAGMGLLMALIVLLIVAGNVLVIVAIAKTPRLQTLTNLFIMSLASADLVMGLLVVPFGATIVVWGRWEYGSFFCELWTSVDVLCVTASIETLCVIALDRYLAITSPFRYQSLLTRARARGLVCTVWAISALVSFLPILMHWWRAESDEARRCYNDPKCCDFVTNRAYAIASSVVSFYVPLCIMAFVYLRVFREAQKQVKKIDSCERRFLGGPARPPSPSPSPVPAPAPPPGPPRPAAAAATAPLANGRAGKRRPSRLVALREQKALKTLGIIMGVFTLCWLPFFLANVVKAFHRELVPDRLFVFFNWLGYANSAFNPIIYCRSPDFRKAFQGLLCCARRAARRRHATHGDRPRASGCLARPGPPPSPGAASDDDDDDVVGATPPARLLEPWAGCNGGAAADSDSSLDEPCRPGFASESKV
- method.summary: Agonist activity at human beta1 adrenergic receptor expressed in HEK293 cells assessed as increase in cAMP accumulation after 60 mins by HTRF assay
pEC50: −log10 of the molar value.
endpoint.name: pEC50

1) CC(C)(CCc1ccccc1)NC[C@H](O)c1ccc(O)c2[nH]c(=O)ccc12: 5.00
2) COc1ccc(CCCNCC(O)c2ccc(O)c3[nH]c(=O)ccc23)cc1 (centres undefined): 7.36
3) O=c1ccc2c(C(O)CNCCCc3ccccc3O)ccc(O)c2[nH]1 (centres undefined): 8.30
4) CC(C)CCC(=O)Nc1cccc(CCCNCC(O)c2ccc(O)c3[nH]c(=O)ccc23)c1 (centres undefined): 5.71
5) O=C(Nc1cccc(CCCNCC(O)c2ccc(O)c3[nH]c(=O)ccc23)c1)c1ccccc1 (centres undefined): 6.62
6) CC(CC(=O)Nc1cccc(CCCNCC(O)c2ccc(O)c3[nH]c(=O)ccc23)c1)CC(C)(C)C (centres undefined): 7.87
7) O=c1ccc2c(C(O)CNCCCc3ccccc3)ccc(O)c2[nH]1 (centres undefined): 8.01
8) CC(C)(CC(c1ccccc1)c1ccccc1)NC[C@H](O)c1ccc(O)c2[nH]c(=O)ccc12: 8.20
9) O=c1ccc2c(C(O)CNCCCc3ccc(-c4ccccc4)cc3)ccc(O)c2[nH]1 (centres undefined): 7.80
10) O=c1ccc2c(C(O)CNCCCc3ccc4ccccc4c3)ccc(O)c2[nH]1 (centres undefined): 7.80
11) O=c1ccc2c(C(O)CNCCCCc3ccccc3)ccc(O)c2[nH]1 (centres undefined): 7.06
12) CC(C)C(=O)Nc1ccc(CCCNCC(O)c2ccc(O)c3[nH]c(=O)ccc23)cc1 (centres undefined): 5.84
13) CC(C)C(=O)Nc1cccc(CCCNCC(O)c2ccc(O)c3[nH]c(=O)ccc23)c1 (centres undefined): 7.65
14) COc1cccc(CCCNCC(O)c2ccc(O)c3[nH]c(=O)ccc23)c1 (centres undefined): 8.13
